# credit: PubChem BioAssay AID1159580

# normalized growth annotations
Assay: chemical genetic growth profiling, strain panel (AID 1159580);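 note: tested at 20 µM; growth read once vehicle control cultures reached saturation at 30 °C; 1 = growth at the plate median or of vehicle wells; lower values mean less growth of the strain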
Conditions: S. cerevisiae deletion strains, growth OD, locus YGL173C, strain kem1, hits give low values
The campaign covered roughly 5,500 compounds. About 2,000 (36%) were called active. Not shown: some 18% with an inconclusive outcome. Some of the results follow.
observation.type: normalized growth

CN(CCC(N)CC(=O)N[C@H]1C=CC(n2ccc(N)nc2=O)O[C@@H]1C(=O)O)C(=N)N (stereo not given in full) : 0.124
O=C(Nc1ccccc1)Nc1ccccc1 : 0.97
O=c1cc(-c2ccccc2)oc2cc(O)c(O)c(O)c12 : 0.23
OC[C@H]1OC([S-])[C@H](O)[C@@H](O)[C@@H]1O.[Au+] (stereo not given in full) : 1.02
O=c1cc(-c2ccccc2)oc2cccc(O)c12 : 0.946
Nc1ccn(C2O[C@H](CO)[C@@H](O)[C@H]2O)c(=O)n1 (stereo not given in full) : 0.995
N[C@@H]1[C@@H](O)[C@H](O)[C@@H](CO)O[C@H]1O : 1.03
CN(C)CCC(c1ccc(Br)cc1)c1ccccn1 (stereo not given) : 0.975
C[C@H](CCC(=O)O)[C@H]1CCC2C3C(CC[C@@]21C)[C@@]1(C)CC[C@@H](O)C[C@H]1C[C@H]3O (stereo not given in full) : 0.969
CO[C@]12C[C@@H](COC(=O)c3cncc(Br)c3)CN(C)[C@@H]1Cc1cn(C)c3cccc2c13 : 0.989
